# experimental.target: Mdm2/p53 binding (GST-Mdm2 / His-p53) (Homo sapiens, UniProt Q00987, L33E)
# Construct: Mdm2 partial protein having Mdm2 amino acids at positions 25 to 108
# Sequence (Q00987 25-108 L33E): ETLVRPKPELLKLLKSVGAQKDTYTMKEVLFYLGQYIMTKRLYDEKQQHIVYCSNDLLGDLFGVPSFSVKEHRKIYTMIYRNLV
# assay.overview: Mdm2/p53 binding assay (HTRF, His-p53 and GST-Mdm2)
# setup.conditions: His-p53 (aa 1-132) and GST-Mdm2 (aa 25-108, L33E) 6.25 nM each; 25°C, 1 hour; values given as ranges
reported.metric: IC50

Check out these entries, answers already filled in.
CC1(C)CCC2(CC1)N[C@@H](C(=O)N[C@H]1CC[C@H](CO)CC1)[C@H](c1cccc(Cl)c1F)[C@]21C(=O)Nc2nc(Cl)ccc21 (relative stereo) [Example 2]
50 to 100 nM
CC(=O)N(CCO)C[C@@H]1CC[C@@H](NC(=O)[C@@H]2NC3(CCC(C)(C)CC3)[C@@]3(C(=O)Nc4cc(Cl)ccc43)[C@H]2c2ccnc(Cl)c2F)CO1 [Example 44]
1 to 50 nM

Next item in the queue.
input: Bench note: what IC50 did CCN(CC)C(=O)[C@@H]1CC[C@@H](NC(=O)[C@@H]2NC3(CCC(C)(C)CC3)[C@@]3(C(=O)Nc4cc(Cl)ccc43)[C@H]2c2ccnc(Cl)c2F)CO1 [Example 116] show?
output: 1 to 50 nM

====

# experimental.target: Mdm2/p53 binding (GST-Mdm2 / His-p53) (Homo sapiens, UniProt Q00987, L33E)
# Construct: Mdm2 partial protein having Mdm2 amino acids at positions 25 to 108
# assay.overview: Mdm2/p53 binding assay (HTRF, His-p53 and GST-Mdm2)
# setup.conditions: His-p53 (aa 1-132) and GST-Mdm2 (aa 25-108, L33E) 6.25 nM each; 25°C, 1 hour; values given as ranges
pIC50: −log10 of the molar value.
Listing of entries alongside the reported pIC50.

# count of solved cases: 4
CO[C@H]1C[C@@H](NC(=O)[C@@H]2NC3(CCC(C)(C)CC3)[C@@]3(C(=O)Nc4cc(Cl)ccc43)[C@H]2c2ccnc(Cl)c2)CO[C@@H]1CO [Example 59]
7.00 to 7.30
O=C(N[C@@H]1CC[C@@H](c2nnco2)OC1)[C@@H]1NC2(CC(CF)(CF)C2)[C@@]2(C(=O)Nc3cc(Cl)ccc32)[C@H]1c1cccc(Cl)c1F [Example 136]
7.30 to 9.00
CC1(C)CCC2(CC1)N[C@@H](C(=O)N[C@H]1CC[C@H](c3n[nH]c(=O)o3)CC1)[C@H](c1ccnc(Cl)c1F)[C@]21C(=O)Nc2cc(Cl)ccc21 [Example 35]
7.00 to 7.30
CC1(C)CC2(C1)N[C@@H](C(=O)N[C@@H]1CC[C@@H](CO)OC1)[C@H](c1cccc(Cl)c1F)[C@]21C(=O)Nc2nc(Cl)ccc21 [Example 79]
7.00 to 7.30

Query molecule follows.
input: Fill in the blank: the reported pIC50 of CCNC(=O)[C@@H]1CC[C@@H](NC(=O)[C@@H]2NC3(CC(CF)(CF)C3)[C@@]3(C(=O)Nc4cc(Cl)ccc43)[C@H]2c2cccc(Cl)c2F)CO1 [Example 141] is ____.
output: 7.30 to 9.00

====

# experimental.target: Mdm2/p53 binding (GST-Mdm2 / His-p53) (Homo sapiens, UniProt Q00987, L33E)
# Construct: Mdm2 partial protein having Mdm2 amino acids at positions 25 to 108
# assay.overview: Mdm2/p53 binding assay (HTRF, His-p53 and GST-Mdm2)
# setup.conditions: His-p53 (aa 1-132) and GST-Mdm2 (aa 25-108, L33E) 6.25 nM each; 25°C, 1 hour; values given as ranges
pIC50: −log10 of the molar value.
reported.metric: pIC50

input: Param item = COC[C@@H]1CC[C@@H](NC(=O)[C@@H]2NC3(CCC(C)(C)CC3)[C@@]3(C(=O)Nc4cc(Cl)ccc43)[C@H]2c2ccnc(Cl)c2F)CO1 ; retrieve measured pIC50.
output: 7.00 to 7.30

input: Next up: CC1(C)CCC2(CC1)N[C@@H](C(=O)N[C@@H]1CC[C@@H](c3nnco3)OC1)[C@H](c1cccc(Cl)c1F)[C@]21C(=O)Nc2nc(Cl)ccc21
output: 7.00 to 7.30

input: Try O=C(N[C@H]1CC[C@H](c2nnc(CO)o2)CC1)[C@@H]1NC2(CC(CF)(CF)C2)[C@@]2(C(=O)Nc3cc(Cl)ccc32)[C@H]1c1cccc(Cl)c1F next.
output: 7.00 to 7.30

====

# experimental.target: Mdm2/p53 binding (GST-Mdm2 / His-p53) (Homo sapiens, UniProt Q00987, L33E)
# Construct: Mdm2 partial protein having Mdm2 amino acids at positions 25 to 108
# assay.overview: Mdm2/p53 binding assay (HTRF, His-p53 and GST-Mdm2)
# setup.conditions: His-p53 (aa 1-132) and GST-Mdm2 (aa 25-108, L33E) 6.25 nM each; 25°C, 1 hour; values given as ranges
# Protocol: A protein dilution containing 6.25 nM each of His-p53 (fusion protein of a p53 partial protein having p53 amino acids at positions 1 to 132, with a histidine protein) and GST-Mdm2 (fusion protein of an Mdm2 partial protein having Mdm2 amino acids at positions 25 to 108 with leucine residue 33 substituted by glutamic acid, with glutathione transferase) proteins was prepared using a protein buffer solution (20 mM HEPES pH 7.4, 150 mM NaCl, 0.1% BSA). […]
reported.metric: IC50

CC1(C)CCC2(CC1)N[C@@H](C(=O)N[C@@H]1CC[C@@H](c3nnco3)OC1)[C@H](c1ccnc(Cl)c1F)[C@]21C(=O)Nc2nc(Cl)ccc21
50 to 100 nM
C[C@@H](O)[C@@H]1CC[C@@H](NC(=O)[C@@H]2NC3(CCC(C)(C)CC3)[C@@]3(C(=O)Nc4cc(Cl)ncc43)[C@H]2c2ccnc(Cl)c2F)CO1
1 to 50 nM
CN(C)C(=O)[C@H]1CC[C@H](NC(=O)[C@@H]2NC3(CCC(C)(C)CC3)[C@@]3(C(=O)Nc4cc(Cl)ccc43)[C@H]2c2ccnc(Cl)c2F)CC1
1 to 50 nM

input: Which IC50 value is on record for CC1(C)CCC2(CC1)N[C@@H](C(=O)N[C@H]1CC[C@H](O)CC1)[C@H](c1cc(F)cc(Cl)c1)[C@]21C(=O)Nc2cc(Cl)ccc21 ?
output: 100 to 500 nM

input: Lookup CC1(C)CCC2(CC1)N[C@@H](C(=O)N[C@@H]1CC[C@@H](c3ncon3)OC1)[C@H](c1ccnc(Cl)c1)[C@]21C(=O)Nc2cc(Cl)ccc21
output: 50 to 100 nM

input: CC1(C)CCC2(CC1)N[C@@H](C(=O)N[C@@H]1C=C[C@@H](CO)OC1)[C@H](c1cccc(Cl)c1F)[C@]21C(=O)Nc2cc(Cl)ccc21 , same question.
output: 50 to 100 nM

input: What would you report for O=C(N[C@@H]1CC[C@@H](CO)OC1)[C@@H]1NC2(CC(CF)(CF)C2)[C@@]2(C(=O)Nc3cc(Cl)ccc32)[C@H]1c1cc(F)cc(Cl)c1F ?
output: 1 to 50 nM

input: Entry to check: CC1(C)CCC2(CC1)N[C@@H](C(=O)N[C@@H]1CC[C@@H](C(C)(C)O)OC1)[C@H](c1cccc(Cl)c1F)[C@]21C(=O)Nc2nc(Cl)ccc21
output: 1 to 50 nM

input: Param item: CCN(CC)C(=O)[C@@H]1CC[C@@H](NC(=O)[C@@H]2NC3(CCC(C)(C)CC3)[C@@]3(C(=O)Nc4nc(Cl)ccc43)[C@H]2c2ccnc(Cl)c2F)CO1
output: 1 to 50 nM

input: Try CC1(C)CCC2(CC1)N[C@@H](C(=O)N[C@H]1CC[C@H](N3CC(O)C3)CC1)[C@H](c1ccnc(Cl)c1F)[C@]21C(=O)Nc2cc(Cl)ccc21 next.
output: 1 to 50 nM

input: And then CC1(C)CCC2(CC1)N[C@@H](C(=O)N[C@H]1C[C@H](C(N)=O)C1)[C@H](c1ccnc(Cl)c1F)[C@]21C(=O)Nc2cc(Cl)ccc21 , what is it?
output: 1 to 50 nM

input: Now consider COCCN(C)C(=O)[C@@H]1CC[C@@H](NC(=O)[C@@H]2NC3(CCC(C)(C)CC3)[C@@]3(C(=O)Nc4cc(Cl)ccc43)[C@H]2c2ccnc(Cl)c2F)CO1 and answer again.
output: 1 to 50 nM

input: Continue with CC(O)[C@@H]1CC[C@@H](NC(=O)[C@@H]2NC3(CCC(C)(C)CC3)[C@@]3(C(=O)Nc4nc(Cl)ccc43)[C@H]2c2ccnc(Cl)c2F)CO1 (single isomer, unassigned)
output: 1 to 50 nM

input: Next entry: CC1(C)CCC2(CC1)N[C@@H](C(=O)N[C@@H]1CC[C@@H](CO)OC1)[C@H](c1ccnc(Cl)c1F)[C@]21C(=O)Nc2cc(Cl)ccc21
output: 1 to 50 nM

input: Could you do the same for CC1(C)CCC2(CC1)N[C@@H](C(=O)N[C@H]1C[C@H](C(C)(C)O)C1)[C@H](c1ccnc(Cl)c1F)[C@]21C(=O)Nc2cc(Cl)ccc21 , please?
output: 50 to 100 nM

input: Further, for CC1(C)CCC2(CC1)N[C@@H](C(=O)N[C@@H]1CC[C@@H](CO)OC1)[C@H](c1cncc(Cl)c1)[C@]21C(=O)Nc2cc(Cl)ccc21 ?
output: 1 to 50 nM

input: Now the same for CC1(C)CCC2(CC1)N[C@@H](C(=O)N[C@@H]1CC[C@@H](CNS(C)(=O)=O)OC1)[C@H](c1ccnc(Cl)c1F)[C@]21C(=O)Nc2cc(Cl)ccc21
output: 50 to 100 nM

input: Field entry: CO[C@H]1C[C@@H](NC(=O)[C@@H]2NC3(CCC(C)(C)CC3)[C@@]3(C(=O)Nc4cc(Cl)ccc43)[C@H]2c2cccc(Cl)c2F)CO[C@@H]1CO
output: 100 to 500 nM

input: Try CC1(C)CCC2(CC1)N[C@@H](C(=O)N[C@@H]1CC[C@@H](C(N)=O)OC1)[C@H](c1cccc(Cl)c1F)[C@]21C(=O)Nc2cc(Cl)ncc21 next.
output: 1 to 50 nM

input: Query CNC(=O)C[C@@H]1CC[C@@H](NC(=O)[C@@H]2NC3(CCC(C)(C)CC3)[C@@]3(C(=O)Nc4cc(Cl)ccc43)[C@H]2c2ccnc(Cl)c2F)CO1 next
output: 1 to 50 nM

input: Do the same for NC(=O)[C@@H]1CC[C@@H](NC(=O)[C@@H]2NC3(CC(CF)(CF)C3)[C@@]3(C(=O)Nc4cc(Cl)ccc43)[C@H]2c2cccc(Cl)c2F)CO1 please
output: 1 to 50 nM

input: // query: CC1(C)CCC2(CC1)N[C@@H](C(=O)N[C@H]1CC[C@H](c3nnco3)CC1)[C@H](c1cccc(Cl)c1F)[C@]21C(=O)Nc2cc(Cl)ccc21
output: 50 to 100 nM
